src = patent US20190309059A1

Target: his-labeled human IL-13 (immunogen A) (human) (UniProt P35225)
Experiment: SPR (Biacore)
quantity_measured: Kd

State the recorded Kd for this entry: c35E2C3 (mouse-human chimeric IL-13 antibody) (antibody, V domains shown) VH: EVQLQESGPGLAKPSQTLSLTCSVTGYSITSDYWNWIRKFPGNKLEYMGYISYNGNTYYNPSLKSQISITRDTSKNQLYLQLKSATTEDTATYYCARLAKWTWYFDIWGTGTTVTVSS VL: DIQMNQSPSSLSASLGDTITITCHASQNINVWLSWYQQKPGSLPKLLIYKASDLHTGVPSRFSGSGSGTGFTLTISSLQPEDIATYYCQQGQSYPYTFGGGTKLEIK < 90 nM

***
Report Kd for c35H6E1 (mouse-human chimeric IL-13 antibody) (antibody, V domains shown) VH: QVTLKESGPGILQSSQTLSLTCSFSGFSLSTSNMGVSWIRQPSGKGLEWLAHIYWDDDKRYNPSLESRLTISKDTSRNQVFLKITSVDTADSATYYCARRTNYFSTRDYFDYWGQGTTLTVSS VL: DIQMTQSPASLSVSVGETVTITCRASENIYSNLVWYQQKQGKSPQLLVYAATKLADGVPSRFSGSGSGTQYSLKINSLQSEDFGSYYCQHFWGFPWTFGGGTKLEIK please. < 90 nM
